- TESTED ON: Aβ oligomer (Homo sapiens)
- Construct: purchased Sigma-Aldrich Corporation (China)
- Sequence (P05067 672-711 limits assumed): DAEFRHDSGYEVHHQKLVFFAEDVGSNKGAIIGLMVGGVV
- PROTOCOL DESCRIPTION: ELISA determination of Aβ oligomer (6E10/A11)
- Assay type: biochemical
- EXPERIMENTAL PARAMETERS: read-out: IC50 of inhibition on Aβ oligomer formation
ENDPOINT NAME: pIC50
Please report pIC50 as the negative decimal logarithm of the molar concentration, giving only the number.

Enquiry: Bench note: what pIC50 did `COc1c(O)cc2oc3cc(O)c(CC=C(C)C)c(O)c3c(=O)c2c1CC=C(C)C` show?
Return: 5.96

Every entry's value here was drawn from patent US20140080903A1.
